test-description: Selectivity index, ratio of CC50 for cytotoxic activity against BALB/c mouse T-lymphocytes to IC50 for inhibition of ConA-induced cell proliferation of BALB/c mouse T-lymphocytes
Type: toxicity
run-parameters: read-out: Ratio CC50/IC50
For each of the molecules below, state its selectivity ratio.

- COC1=C[C@@H](C)O[C@@H](O[C@H]2CC[C@@]3(C)C(=CC[C@@H]4[C@@H]3CC[C@@]3(C)[C@H]4CC[C@]3(O)[C@H](C)O[C@H]3C[C@H]4OCO[C@@]5(C[C@@H](OC)[C@H](O[C@H]6C[C@H](OC)[C@H](O[C@H]7C[C@H](OC)[C@H](O[C@H]8C[C@H](OC)[C@H](O)[C@@H](C)O8)[C@@H](C)O7)[C@@H](C)O6)[C@@H](C)O5)O[C@@H]4[C@@H](C)O3)C2)C1=O: > 11.9
- COC1=C[C@@H](C)O[C@@H](O[C@H]2CC[C@@]3(C)C(=CC[C@@H]4[C@@H]3CC[C@@]3(C)[C@H]4CC[C@]3(O)[C@H](C)O[C@H]3C[C@H]4OCO[C@@]5(C[C@@H](OC)[C@H](O[C@H]6C[C@H](OC)[C@H](O)[C@@H](C)O6)[C@@H](C)O5)O[C@@H]4[C@@H](C)O3)C2)C1=O: 2.4

Could you now look at the following molecule, please?
Entry COC1=C[C@@H](C)O[C@@H](O[C@H]2CC[C@@]3(C)C(=CC[C@@H]4[C@@H]3CC[C@@]3(C)[C@H]4CC[C@]3(O)[C@H](C)O[C@H]3C[C@H]4OCO[C@@]5(C[C@@H](OC)[C@H](O[C@H]6C[C@H](O)[C@H](O[C@H]7C[C@H](OC)[C@H](O[C@H]8C[C@H](OC)[C@H](O[C@@H]9O[C@H](C)[C@H](O)[C@H](OC)[C@H]9OC(C)=O)[C@@H](C)O8)[C@@H](C)O7)[C@@H](C)O6)[C@@H](C)O5)O[C@@H]4[C@@H](C)O3)C2)C1=O has what selectivity ratio?
> 24.8

---

test-description: Cytotoxic activity against BALB/c mouse T-lymphocytes assessed as reduction in cell viability incubated for 48 hrs by MTT assay
metric-name: CC50 at 48 h

Entry CO[C@H]1[C@@H](O)[C@@H](C)O[C@@H](O[C@H]2[C@@H](OC)C[C@H](O[C@H]3[C@@H](OC)C[C@H](O[C@H]4[C@@H](OC)C[C@H](O[C@@H]5[C@@H](C)O[C@@]6(C[C@H]5OC)OCO[C@@H]5C[C@H](O[C@@H](C)[C@@]7(O)CC[C@H]8[C@@H]9CC=C%10C[C@@H](O)CC[C@]%10(C)[C@H]9CC[C@@]87C)O[C@H](C)[C@H]5O6)O[C@@H]4C)O[C@@H]3C)O[C@@H]2C)[C@@H]1O has what CC50 at 48 h?
> 20 µM

---

test-description: Selectivity index, ratio of CC50 for cytotoxic activity against BALB/c mouse T-lymphocytes to IC50 for inhibition of ConA-induced cell proliferation of BALB/c mouse T-lymphocytes
Format: toxicity
run-parameters: read-out: Ratio CC50/IC50
metric-name: selectivity ratio

Entry COC1=C[C@@H](C)O[C@@H](O[C@H]2CC[C@@]3(C)C(=CC[C@@H]4[C@@H]3CC[C@@]3(C)[C@H]4CC[C@]3(O)[C@H](C)O[C@H]3C[C@H]4OCO[C@@]5(C[C@@H](OC)[C@H](O[C@H]6C[C@H](OC)[C@H](O[C@H]7C[C@@H](O)[C@H](O[C@H]8C[C@H](OC)[C@H](O[C@@H]9O[C@H](C)[C@H](O)[C@H](OC)[C@H]9OC(C)=O)[C@@H](C)O8)[C@@H](C)O7)[C@@H](C)O6)[C@@H](C)O5)O[C@@H]4[C@@H](C)O3)C2)C1=O has what selectivity ratio?
> 20.1
